Kindly state cAMP production (pmol/ml/µg prt) with saturated glucagon peptide, at 100 nM for each of the entries shown.
STUDY_TARGET: human glucagon receptor (human, UniProt P47871 26-477)
Sequence (P47871 26-477): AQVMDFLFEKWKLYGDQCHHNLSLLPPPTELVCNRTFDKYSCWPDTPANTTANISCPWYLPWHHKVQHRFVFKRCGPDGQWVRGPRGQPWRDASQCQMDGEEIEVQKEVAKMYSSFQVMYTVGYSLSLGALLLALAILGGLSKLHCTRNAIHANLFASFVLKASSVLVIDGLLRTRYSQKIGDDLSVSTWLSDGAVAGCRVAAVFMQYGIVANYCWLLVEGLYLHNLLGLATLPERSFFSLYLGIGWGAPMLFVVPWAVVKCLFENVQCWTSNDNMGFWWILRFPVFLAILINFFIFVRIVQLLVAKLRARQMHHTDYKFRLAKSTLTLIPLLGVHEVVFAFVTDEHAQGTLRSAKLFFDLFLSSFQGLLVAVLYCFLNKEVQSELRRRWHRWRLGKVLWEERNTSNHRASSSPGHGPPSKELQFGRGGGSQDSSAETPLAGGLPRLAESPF
RUN_DESCRIPTION: cell-based or functional assay
Where no end group is shown, it is not given here. [ ]: non-standard residue; d: D form. αMePhe(2,6-F2) = C[C@](N)(Cc1c(F)cccc1F)C(=O)O; αMePhe(2-F) = C[C@](N)(Cc1ccccc1F)C(=O)O; αMeBip(OMe) = alpha-methylated Bip(OMe); hhPhe = N[C@@H](CCCc1ccccc1)C(=O)O; αMeD = C[C@](N)(CC(=O)O)C(=O)O; αMeP = C[C@@]1(C(=O)O)CCCN1; αMeAPPA = not defined here; Aib = CC(C)(N)C(=O)O
Write the number in pmol/ml/µg prt without appending the unit.

Could you share which cAMP production (pmol/ml/µg prt) with saturated glucagon peptide, at 100 nM value was measured for VH[Aib]QGT[αMePhe(2-F)]TSD[αMeBip(OMe)][hhPhe] (not fully specified (C-terminus); printed as VH-Aib-QGT-(αMe-2FPhe)-TSD-(αMe-Bip(OMe))-(APPA)) [Seq. ID. No. 19] ?
8

Find the recorded cAMP production (pmol/ml/µg prt) with saturated glucagon peptide, at 100 nM belonging to VH[Aib]EGTFTS[αMeD][αMeBip(OMe)][hhPhe]-NH2 [Seq. ID. No. 63] and report it.
16

Need cAMP production (pmol/ml/µg prt) with saturated glucagon peptide, at 100 nM, item VVHSEGTFTSD[αMeBip(OMe)][hhPhe] (not fully specified (C-terminus); printed as VVHSEGTFTSD-(αMe-Bip(OMe))-(APPA)) [Seq. ID. No. 209]
0

Field request: cAMP production (pmol/ml/µg prt) with saturated glucagon peptide, at 100 nM | item: VH[αMeP]QGT[αMePhe(2,6-F2)]TS[αMeD][αMeBip(OMe)][αMeAPPA] (not fully specified (C-terminus); reading uncertain) [Seq. ID. No. 200]
6

Reference source for all entries: patent US20120264685A1
